assay: Displacement of [3H]Ro151788 from CBR in rat […]; format: tissue-based
pKi: −log10 of the molar value.
Listed next: entries and their corresponding pKi.

CCOc1ccc(-c2nn3c(C)cc(C)nc3c2CC(=O)N(CC)CC)cc1 :: < 5.00
CCCOc1ccc(-c2nn3c(C)cc(C)nc3c2CC(=O)N(CC)CC)cc1 :: < 5.00
CCCCOc1ccc(-c2nn3c(C)cc(C)nc3c2CC(=O)N(CC)CC)cc1 :: < 5.00
C#CCOc1ccc(-c2nn3c(C)cc(C)nc3c2CC(=O)N(CC)CC)cc1 :: < 5.00

// query Provide measured pKi value, entry: CCC(C)N(C)C(=O)c1cc2ccccc2c(-c2ccccc2Cl)n1 (configuration not stated)
// result < 5.00

// query Provide measured pKi value, entry: CCN(CC)C(=O)Cc1c(-c2ccc(OCCF)cc2)nn2c(C)cc(C)nc12
// result < 5.00

// query Provide measured pKi value, entry: CCN(CC)C(=O)Cc1c(-c2ccc(OC)cc2)nn2c(C)cc(C)nc12
// result < 5.00

====

Listed next: entries and their corresponding inhibition.
biological target: Muscarinic acetylcholine receptor M3 (Homo sapiens) (UniProt P20309); test: Inhibition of M3 muscarinic receptor at 10 uM
Sequence (P20309 whole entry, looked up): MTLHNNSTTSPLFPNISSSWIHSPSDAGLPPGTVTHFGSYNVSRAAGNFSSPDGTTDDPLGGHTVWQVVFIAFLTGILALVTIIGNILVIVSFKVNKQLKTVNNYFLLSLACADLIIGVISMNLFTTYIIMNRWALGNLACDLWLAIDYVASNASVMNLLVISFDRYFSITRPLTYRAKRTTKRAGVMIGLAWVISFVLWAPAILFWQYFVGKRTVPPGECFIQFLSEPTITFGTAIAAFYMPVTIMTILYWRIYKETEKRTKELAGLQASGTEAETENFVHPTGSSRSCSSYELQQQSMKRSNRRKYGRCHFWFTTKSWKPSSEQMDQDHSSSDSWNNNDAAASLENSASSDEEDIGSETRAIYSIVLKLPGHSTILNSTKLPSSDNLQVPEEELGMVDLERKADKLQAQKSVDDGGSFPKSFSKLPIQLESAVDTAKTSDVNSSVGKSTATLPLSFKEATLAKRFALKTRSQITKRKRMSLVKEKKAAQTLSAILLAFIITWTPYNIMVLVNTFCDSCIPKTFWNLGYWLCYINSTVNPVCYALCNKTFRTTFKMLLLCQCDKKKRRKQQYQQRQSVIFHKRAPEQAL

// query Give measured inhibition for CCCOc1ccc(-c2nn3c(C)cc(C)nc3c2CC(=O)N(CC)CC)cc1 (Muscarinic acetylcholine receptor M3 (Homo sapiens) (UniProt P20309)).
// result < 50%

// query Give measured inhibition for C#CCOc1ccc(-c2nn3c(C)cc(C)nc3c2CC(=O)N(CC)CC)cc1 (Muscarinic acetylcholine receptor M3 (Homo sapiens) (UniProt P20309)).
// result < 50%

// query Give measured inhibition for CCOc1ccc(-c2nn3c(C)cc(C)nc3c2CC(=O)N(CC)CC)cc1 (Muscarinic acetylcholine receptor M3 (Homo sapiens) (UniProt P20309)).
// result < 50%

// query Give measured inhibition for CCCCOc1ccc(-c2nn3c(C)cc(C)nc3c2CC(=O)N(CC)CC)cc1 (Muscarinic acetylcholine receptor M3 (Homo sapiens) (UniProt P20309)).
// result < 50%

====

target: Delta-type opioid receptor (Homo sapiens); assay: Inhibition of delta opioid receptor
Sequence (P41143 whole entry): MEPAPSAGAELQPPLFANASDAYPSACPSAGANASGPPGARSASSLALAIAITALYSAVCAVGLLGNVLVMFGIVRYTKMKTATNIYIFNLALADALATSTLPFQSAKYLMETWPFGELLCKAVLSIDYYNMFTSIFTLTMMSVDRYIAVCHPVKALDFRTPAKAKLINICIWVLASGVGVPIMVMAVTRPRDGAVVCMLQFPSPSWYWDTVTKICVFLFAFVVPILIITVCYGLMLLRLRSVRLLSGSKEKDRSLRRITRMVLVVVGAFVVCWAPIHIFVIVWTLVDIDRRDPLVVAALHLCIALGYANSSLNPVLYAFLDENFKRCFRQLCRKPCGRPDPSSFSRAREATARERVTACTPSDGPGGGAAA
pKi: −log10 of the molar value.
Listed next: entries and their corresponding pKi.

CCCCOc1ccc(-c2nn3c(C)cc(C)nc3c2CC(=O)N(CC)CC)cc1 :: < 5.00

As a next step, examine the compound that follows.
// query Provide measured pKi value, entry: CCCOc1ccc(-c2nn3c(C)cc(C)nc3c2CC(=O)N(CC)CC)cc1
// result < 5.00

====

Listed next: entries and their corresponding inhibition.
target: UniProtKB P18825; test: Inhibition of Alpha-2C adrenergic receptor at 10 uM
Sequence (P18825 whole entry): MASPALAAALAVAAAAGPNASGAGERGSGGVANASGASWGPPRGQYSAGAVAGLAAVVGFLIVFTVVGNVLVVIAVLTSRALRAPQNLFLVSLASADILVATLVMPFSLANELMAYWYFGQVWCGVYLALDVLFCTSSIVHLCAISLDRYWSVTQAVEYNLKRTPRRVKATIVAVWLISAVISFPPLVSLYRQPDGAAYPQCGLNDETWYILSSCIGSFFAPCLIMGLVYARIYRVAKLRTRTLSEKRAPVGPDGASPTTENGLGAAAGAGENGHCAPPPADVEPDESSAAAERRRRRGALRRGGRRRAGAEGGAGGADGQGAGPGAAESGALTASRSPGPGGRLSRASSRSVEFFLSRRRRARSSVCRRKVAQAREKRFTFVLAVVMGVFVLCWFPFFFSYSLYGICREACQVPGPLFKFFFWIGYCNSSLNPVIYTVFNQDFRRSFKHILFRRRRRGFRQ

Some compounds with known inhibition results, for comparison:
CCCOc1ccc(-c2nn3c(C)cc(C)nc3c2CC(=O)N(CC)CC)cc1 :: < 50%
CCOc1ccc(-c2nn3c(C)cc(C)nc3c2CC(=O)N(CC)CC)cc1 :: < 50%
C#CCOc1ccc(-c2nn3c(C)cc(C)nc3c2CC(=O)N(CC)CC)cc1 :: < 50%

As a next step, examine the compound that follows.
// query Provide measured inhibition value, entry: CCCCOc1ccc(-c2nn3c(C)cc(C)nc3c2CC(=O)N(CC)CC)cc1
// result < 50%

====

Listed next: entries and their corresponding inhibition.
molecular target: Muscarinic acetylcholine receptor M2 (Homo sapiens) (UniProt P08172); assay: Inhibition of M2 muscarinic receptor at 10 uM
Sequence (P08172 whole entry): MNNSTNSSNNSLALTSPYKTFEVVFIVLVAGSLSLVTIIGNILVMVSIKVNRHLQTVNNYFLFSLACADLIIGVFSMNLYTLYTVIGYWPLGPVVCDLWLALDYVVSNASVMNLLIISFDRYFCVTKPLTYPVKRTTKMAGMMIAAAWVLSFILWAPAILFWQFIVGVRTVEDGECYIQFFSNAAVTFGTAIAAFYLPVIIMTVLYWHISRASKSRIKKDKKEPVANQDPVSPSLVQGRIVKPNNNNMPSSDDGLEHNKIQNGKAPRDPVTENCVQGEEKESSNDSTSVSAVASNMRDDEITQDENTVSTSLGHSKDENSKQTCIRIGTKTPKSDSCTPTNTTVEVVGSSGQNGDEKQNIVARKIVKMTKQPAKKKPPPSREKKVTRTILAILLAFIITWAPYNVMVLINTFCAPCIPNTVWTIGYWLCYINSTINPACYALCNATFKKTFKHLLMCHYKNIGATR

C#CCOc1ccc(-c2nn3c(C)cc(C)nc3c2CC(=O)N(CC)CC)cc1 :: < 50%
CCCCOc1ccc(-c2nn3c(C)cc(C)nc3c2CC(=O)N(CC)CC)cc1 :: < 50%
CCCOc1ccc(-c2nn3c(C)cc(C)nc3c2CC(=O)N(CC)CC)cc1 :: < 50%

As a next step, examine the molecule that follows.
// query Provide measured inhibition value, entry: CCOc1ccc(-c2nn3c(C)cc(C)nc3c2CC(=O)N(CC)CC)cc1
// result < 50%

====

biological target: D(1A) dopamine receptor (Homo sapiens) (UniProt P21728); test: Inhibition of D1 dopamine receptor at 10 uM
Sequence (P21728 whole entry): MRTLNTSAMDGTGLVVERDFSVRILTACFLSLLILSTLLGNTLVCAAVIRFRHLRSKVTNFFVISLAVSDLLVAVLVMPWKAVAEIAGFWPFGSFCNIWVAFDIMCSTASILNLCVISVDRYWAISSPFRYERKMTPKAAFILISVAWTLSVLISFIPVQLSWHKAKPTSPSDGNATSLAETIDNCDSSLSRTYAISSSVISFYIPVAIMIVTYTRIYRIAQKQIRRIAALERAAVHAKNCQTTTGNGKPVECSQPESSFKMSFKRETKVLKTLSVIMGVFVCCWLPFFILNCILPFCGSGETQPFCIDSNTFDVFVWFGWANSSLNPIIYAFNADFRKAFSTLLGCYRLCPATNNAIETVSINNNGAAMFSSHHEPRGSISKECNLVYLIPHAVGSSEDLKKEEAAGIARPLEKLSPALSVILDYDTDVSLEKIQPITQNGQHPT
measured property: inhibition

Some compounds with known inhibition results, for comparison:
CCCCOc1ccc(-c2nn3c(C)cc(C)nc3c2CC(=O)N(CC)CC)cc1 :: < 50%
C#CCOc1ccc(-c2nn3c(C)cc(C)nc3c2CC(=O)N(CC)CC)cc1 :: < 50%

As a next step, examine the compound that follows.
// query Give measured inhibition for CCOc1ccc(-c2nn3c(C)cc(C)nc3c2CC(=O)N(CC)CC)cc1 (D(1A) dopamine receptor (Homo sapiens) (UniProt P21728)).
// result < 50%
